Biological target: Bile acid receptor (Homo sapiens)
Sequence (Q96RI1 whole entry): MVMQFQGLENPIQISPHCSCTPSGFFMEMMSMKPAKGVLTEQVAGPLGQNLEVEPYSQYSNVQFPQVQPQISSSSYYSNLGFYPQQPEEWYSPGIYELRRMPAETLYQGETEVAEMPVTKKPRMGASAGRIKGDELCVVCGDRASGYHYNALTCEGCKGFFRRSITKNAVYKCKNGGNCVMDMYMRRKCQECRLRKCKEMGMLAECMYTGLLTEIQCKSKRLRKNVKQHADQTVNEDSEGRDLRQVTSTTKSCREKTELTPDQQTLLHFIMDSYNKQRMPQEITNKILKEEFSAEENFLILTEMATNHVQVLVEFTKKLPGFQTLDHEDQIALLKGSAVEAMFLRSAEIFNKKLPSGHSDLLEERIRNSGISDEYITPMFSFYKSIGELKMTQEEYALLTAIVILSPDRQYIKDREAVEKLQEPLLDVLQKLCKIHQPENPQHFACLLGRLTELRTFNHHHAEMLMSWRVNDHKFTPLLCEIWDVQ
Assay: Agonist activity at FXR-LBD (unknown origin) incubated for 3 hrs in presence of fluorescein-coactivator peptide by TR-FRET analysis
Result type: EC50 (nM)

A: O=C(O)c1ccc(-c2ccc(OCc3c(-c4c(Cl)cccc4Cl)noc3C3CC3)cc2)nc1
B: Cc1cc(OCc2c(-c3c(Cl)cccc3Cl)noc2C2CC2)cc(C)c1-c1ccc(C(=O)O)cc1
Returns: the argument ( A or B ) having the larger EC50. Lab note: record the label of whichever item you select.
A

P: O=C(O)c1ccc(-c2ccc(OCc3c(-c4c(Cl)cccc4Cl)noc3C3CC3)cn2)cc1
Q: NC(=O)c1ccc(-c2ccc(OCc3c(-c4c(Cl)cccc4Cl)noc3C3CC3)cc2)cc1
Returns: the argument ( P or Q ) having the larger EC50. Lab note: record the label of whichever item you select.
P

1: O=C(O)c1ccc(-c2ccc(OCc3c(-c4c(Cl)cccc4Cl)noc3C3CC3)cc2)cc1
2: O=C(O)c1ccc(-c2ccc(OCc3c(-c4c(Cl)cccc4Cl)noc3C3CC3)cc2)cc1Cl
Returns: the argument ( 1 or 2 ) having the larger EC50. Lab note: record the label of whichever item you select.
2
(2: 193 nM, 1: 52 nM)

====

target: G-protein coupled bile acid receptor 1 (Homo sapiens, UniProt Q8TDU6); assay: Agonist activity at TGR5 in human NCI-H716 cells assessed as increase in intracellular cAMP level preincubated with compound for 60 mins followed by IBMX addition and measured after 24 hrs by HTR-FRET assay
Sequence (Q8TDU6 whole entry): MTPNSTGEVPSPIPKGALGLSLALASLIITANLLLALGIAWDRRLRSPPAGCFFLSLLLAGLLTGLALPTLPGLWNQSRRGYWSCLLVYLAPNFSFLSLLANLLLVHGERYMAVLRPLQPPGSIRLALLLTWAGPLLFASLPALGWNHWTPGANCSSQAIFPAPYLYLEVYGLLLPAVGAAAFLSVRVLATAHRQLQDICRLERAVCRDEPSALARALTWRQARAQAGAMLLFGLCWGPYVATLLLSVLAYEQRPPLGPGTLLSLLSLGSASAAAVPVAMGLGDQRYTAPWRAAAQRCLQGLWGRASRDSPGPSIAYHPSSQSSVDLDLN
pEC50: −log10 of the molar value.
Result type: pEC50

# pEC50 (molecule: `O=C(O)c1ccc(-c2ccc(OCc3c(-c4c(Cl)cccc4Cl)noc3C3CC3)cc2)cc1` ) is < 5.00

====

biological target: Androgen receptor (Homo sapiens, UniProt P10275); assay: Agonist activity at androgen receptor (unknown origin) transfected in green monkey CV-1 cells co-transfected with NHR responsive luciferase reporter incubated for 18 hrs by luciferase assay
Sequence (P10275 whole entry): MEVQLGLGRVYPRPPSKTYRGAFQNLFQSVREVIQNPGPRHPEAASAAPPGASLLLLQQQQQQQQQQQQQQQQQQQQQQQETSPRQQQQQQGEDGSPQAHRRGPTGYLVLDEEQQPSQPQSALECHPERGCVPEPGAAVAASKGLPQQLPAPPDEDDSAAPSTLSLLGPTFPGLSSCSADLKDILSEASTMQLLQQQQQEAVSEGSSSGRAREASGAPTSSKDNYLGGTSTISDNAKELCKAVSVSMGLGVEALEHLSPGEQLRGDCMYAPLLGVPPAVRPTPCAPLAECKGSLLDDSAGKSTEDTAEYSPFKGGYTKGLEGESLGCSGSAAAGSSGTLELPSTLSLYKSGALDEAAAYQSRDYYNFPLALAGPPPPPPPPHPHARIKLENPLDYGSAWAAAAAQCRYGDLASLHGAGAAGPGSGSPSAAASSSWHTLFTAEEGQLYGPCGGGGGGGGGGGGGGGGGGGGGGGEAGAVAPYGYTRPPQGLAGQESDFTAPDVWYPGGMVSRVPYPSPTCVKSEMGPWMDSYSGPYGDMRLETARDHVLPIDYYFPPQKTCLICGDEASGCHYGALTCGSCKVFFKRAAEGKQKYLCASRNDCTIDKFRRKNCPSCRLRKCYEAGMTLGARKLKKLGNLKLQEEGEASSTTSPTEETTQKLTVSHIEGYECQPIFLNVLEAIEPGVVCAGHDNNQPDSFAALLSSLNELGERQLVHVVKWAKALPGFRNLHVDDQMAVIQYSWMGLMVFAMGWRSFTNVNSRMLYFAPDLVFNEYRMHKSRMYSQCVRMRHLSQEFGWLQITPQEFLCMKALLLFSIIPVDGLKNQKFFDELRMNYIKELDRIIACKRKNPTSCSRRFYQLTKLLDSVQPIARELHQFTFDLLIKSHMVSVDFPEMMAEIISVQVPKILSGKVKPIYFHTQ
pEC50: −log10 of the molar value.
Result type: pEC50

# pEC50 (compound: `O=C(O)c1ccc(-c2ccc(OCc3c(-c4c(Cl)cccc4Cl)noc3C3CC3)cc2)cc1` ) is < 5.00

====

target: Bile acid receptor (Homo sapiens); assay: Agonist activity at FXR-LBD (unknown origin) incubated for 3 hrs in presence of fluorescein-coactivator peptide by TR-FRET analysis
Result type: EC50 (nM)

CNC(=O)c1ccc(-c2ccc(OCc3c(-c4c(Cl)cccc4Cl)noc3C3CC3)cc2)cc1 : 146

a: CC(C)c1onc(-c2ccccc2C(F)(F)F)c1COc1ccc(-c2ccc(C(=O)O)cc2)cc1
b: CC(C)NC(=O)c1ccc(-c2ccc(OCc3c(-c4c(Cl)cccc4Cl)noc3C3CC3)cc2)cc1
c: O=C(O)c1ccc(-c2ccc(OCc3c(-c4c(Cl)cccc4Cl)noc3C3CC3)c(F)c2)cc1
d: O=C(O)c1c(F)cc(-c2ccc(OCc3c(-c4c(Cl)cccc4Cl)noc3C3CC3)cc2)cc1F
Order the items by recorded EC50; the first position goes to the largest value. # the answer lists labels in the order requested
b, d, a, c
(b: 974 nM, d: 531 nM, a: 232 nM, c: 143 nM)
